Parameter growth inhibition: see the listing below.
assay: NCI Yeast Anticancer Drug Screen. Data for the mlh1 rad18 strain (AID 175); details: S. cerevisiae mlh1 rad18 strain growth inhibition; at 50.0 µM (retest, dose inferred, filed as 5.0); hits give high values
The panel holds about 79,000 compounds, 15% with a hit somewhere; the sample as a whole holds those more often.
Give your result in % as a bare value.

{"MOLECULE": "OC1(c2ccc(Br)cc2)C2CCCCC2C2CCCCC21 (stereo not drawn)", "growth inhibition, %": 95}
{"MOLECULE": "Cc1cccc(Cc2ccc(Cl)cc2)c1O", "growth inhibition, %": 99}
{"MOLECULE": "O=C1c2ccccc2-c2ccc(N3C(=O)C4CCCCC4C3=O)cc21 (stereo not drawn)", "growth inhibition, %": 94}

Endpoint output: growth inhibition of C/C(=N/O)c1ccc2c(c1)C(=NO)c1cc(/C(C)=N/O)ccc1-2 . Value?
98

---

test: NCI Yeast Anticancer Drug Screen. Data for the mlh1 rad18 strain (AID 175); conditions: S. cerevisiae mlh1 rad18 strain growth inhibition; at 5.0 µM (retest, dose inferred, filed as 0.5); hits give high values
About 79,000 compounds went through this panel and 15% of them were active in at least one assay; those are over-represented in the sample as a whole.
REPORTED_PROPERTY: growth inhibition (%)
Give your result in % as a bare value.

Please review the entries below; each comes with its answer.
{"MOLECULE": "CN(C)CC/[N+]([O-])=C(/c1ccccc1)C12CC3CC(CC(C3)C1)C2", "UNIT_DESCRIPTOR": "%", "growth inhibition": 9}
{"MOLECULE": "Cc1ccc[n+](CC(=O)C2CCC3C4CC=C5CC(O)CCC5(C)C4CCC23C)c1 (centres undefined)", "UNIT_DESCRIPTOR": "%", "growth inhibition": -4}
{"MOLECULE": "C=C1CC(c2ccc(OCCCN3C(=O)c4ccccc4C3=O)cc2)OC1=O (centres undefined)", "UNIT_DESCRIPTOR": "%", "growth inhibition": 34}
{"MOLECULE": "Clc1ccc(SSc2ccc(Cl)cn2)nc1", "UNIT_DESCRIPTOR": "%", "growth inhibition": 11}

Endpoint output: growth inhibition of CS(=O)(=O)OCCN(CCOS(C)(=O)=O)c1ccc(C=Nc2ccc(-c3csc(-c4ccc(Br)cc4)n3)cc2)cc1 . Value?
60

Endpoint output: growth inhibition of Cn1c(=O)ccc2cc(C(=O)c3ccccc3)ccc21 . Value?
9

---

test: NCI Yeast Anticancer Drug Screen. Data for the mec2-1 strain (AID 157); details: S. cerevisiae mec2-1 strain, at 50.0 µM, hits give high values
The panel holds about 79,000 compounds, 15% with a hit somewhere; the sample as a whole holds those more often.
Parameter growth inhibition: see the listing below.
Give your result in % as a bare value.

Please review the entries below; each comes with its answer.
{"COMPOUND": "CCCCc1ccc2nc(C)cc(N=[N+]=[N-])c2c1", "UNIT_DESCRIPTOR": "%", "growth inhibition": 99}
{"COMPOUND": "O=C(CBr)Nc1ccc(Cc2ccc(NC(=O)CBr)cc2)cc1", "UNIT_DESCRIPTOR": "%", "growth inhibition": 98.7}
{"COMPOUND": "N=C1c2ccccc2-c2ccccc21", "UNIT_DESCRIPTOR": "%", "growth inhibition": 37.2}
{"COMPOUND": "OCC(O)Cc1c(Cl)c(Cl)c(Oc2c(Cl)c(Cl)c(CC(O)CO)c(Cl)c2Cl)c(Cl)c1Cl (centres undefined)", "UNIT_DESCRIPTOR": "%", "growth inhibition": 14.6}
{"COMPOUND": "C/C=C\\C=N\\NC(N)=S", "UNIT_DESCRIPTOR": "%", "growth inhibition": 83.7}
{"COMPOUND": "CCn1c2ccc(N)cc2c2c(N)c(-n3cccc3)ccc21", "UNIT_DESCRIPTOR": "%", "growth inhibition": 64.2}
{"COMPOUND": "Cc1cc(Cc2ccccc2Cl)ccc1O", "UNIT_DESCRIPTOR": "%", "growth inhibition": 99.6}
{"COMPOUND": "COc1cccc(CCCNC(=O)Cc2ccccc2CO)c1", "UNIT_DESCRIPTOR": "%", "growth inhibition": -55.1}

Endpoint output: growth inhibition of CCCCCCc1c(Cl)nc(Cl)nc1Cl . Value?
26.2

Endpoint output: growth inhibition of COc1ccc(/C=C2\CN(C)C/C(=C\c3ccc(OC)cc3)C2=O)cc1 . Value?
21.6

Endpoint output: growth inhibition of CC(C)CCCC(O)CNCc1ccccc1 (centres undefined) . Value?
11.4

Endpoint output: growth inhibition of CC1=C(C(=O)Nc2ccc(Cl)c(Cl)c2)C(c2ccco2)C(C(=O)Nc2ccc(Cl)c(Cl)c2)=C(C)N1 . Value?
87.7

Endpoint output: growth inhibition of CN(C)CCCN1c2ccc3ccccc3c2Sc2cccc(Cl)c21 . Value?
97.3

Endpoint output: growth inhibition of COc1cc(C=O)c(Cl)cc1O . Value?
67

Endpoint output: growth inhibition of N#CC(C#N)=C(C1CC1)C1CC1 . Value?
-2.5

Endpoint output: growth inhibition of COc1cc(/C=C/C(=O)c2ccc3ccccc3c2)cc(OC)c1OC . Value?
11.3

Endpoint output: growth inhibition of CCCCCOC(=O)c1ccc(O)cc1 . Value?
36

Endpoint output: growth inhibition of CC(C)CN(CC(C)C)CN1C(=O)/C(=C/c2ccc([N+](=O)[O-])cc2)SC1=S . Value?
40.3

---

experiment: NCI Yeast Anticancer Drug Screen. Data for the bub3 strain (AID 167); settings: S. cerevisiae bub3 mutant strain, at 5.0 µM (retest, dose inferred, filed as 0.5), hits give high values
The panel holds about 79,000 compounds, 15% with a hit somewhere; the sample as a whole holds those more often.
Classify as follows. Reported growth inhibition greater than or equal to 10%: label 1. Reported growth inhibition below: label 0.

Please indicate if the recorded growth inhibition for CSC(SC)(C(=O)O)c1cc(C)no1 meets or exceeds 10%.
label 1

Please indicate if the recorded growth inhibition for O=c1c2[nH]c3cccc(Cl)c3c2cnn1-c1ccc(F)cc1 meets or exceeds 10%.
label 0

Please indicate if the recorded growth inhibition for CCN=C(N)Nc1nc(-c2ccc(Cl)cc2)cs1 meets or exceeds 10%.
label 0

Please indicate if the recorded growth inhibition for CC(C)OC1=C(Cl)C(=O)c2c(cccc2[N+](=O)[O-])C1=O meets or exceeds 10%.
label 1

Please indicate if the recorded growth inhibition for CCOC1NC(=S)N(C2CCCCC2)C1(C)C (stereo not drawn) meets or exceeds 10%.
label 0

Please indicate if the recorded growth inhibition for CCOP(=O)(OCC)/C(C#N)=C/c1ccc(C(F)(F)F)cc1 meets or exceeds 10%.
label 1

Please indicate if the recorded growth inhibition for CC(C)C1=CC[C@H]2C(=C1)CC[C@@H]1[C@]2(C)CCC[C@@]1(C)C(=O)O meets or exceeds 10%.
label 0

---

test: NCI Yeast Anticancer Drug Screen. Data for the sgs1 mgt1 strain (AID 161);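 further: 0% = growth of cultures given vehicle only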; conditions: S. cerevisiae sgs1 mgt1 strain, at 5.0 µM (retest, dose inferred, filed as 0.5), hits give high values
This is part of a sample that, as a whole, favours compounds with a hit. Of some 79,000 tested, about 15% had one in any assay.
Parameter growth inhibition: see the listing below.
Give your result in % as a bare value.

{"COMPOUND": "BrCN(CBr)c1ccc2c(c1)Cc1cc(Br)ccc1-2", "UNIT_DESCRIPTOR": "%", "growth inhibition": 1}

Endpoint output: growth inhibition of CCOc1ccc(/C=C\c2ccnc3ccccc23)cc1OCC . Value?
1

Endpoint output: growth inhibition of O=C(Cc1ccccc1)c1ccccc1C(=O)NNc1ccccc1 . Value?
-4

Endpoint output: growth inhibition of C=CCN1CCC(OC(=O)C(O)(C#CC)C2CCCC2)CC1 (stereo unspecified) . Value?
40

Endpoint output: growth inhibition of Nc1ccccc1O . Value?
17

Endpoint output: growth inhibition of NC(c1ccccc1)P(=O)(OCc1ccc([N+](=O)[O-])cc1)OCc1ccc([N+](=O)[O-])cc1 (stereo unspecified) . Value?
-3

---

experiment: NCI Yeast Anticancer Drug Screen. Data for the cln2 rad14 strain (AID 165);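 further: 0% = growth equal to vehicle treated cultures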; settings: S. cerevisiae cln2 rad14 strain, at 50.0 µM (retest, dose inferred, filed as 5.0), hits give high values
About 79,000 compounds went through this panel and 15% of them were active in at least one assay; those are over-represented in the sample as a whole.
REPORTED_PROPERTY: growth inhibition (%)
Give your result in % as a bare value.

Please review the entries below; each comes with its answer.
{"MOLECULE": "CCC/C(C)=N/NC(=S)SC", "REPORTED_PROPERTY": "growth inhibition", "MEASURED_VALUE": 84}
{"MOLECULE": "Cn1c(Sc2ccc(-c3cccnc3)n2C)ccc1-c1cccnc1", "REPORTED_PROPERTY": "growth inhibition", "MEASURED_VALUE": 77}

Endpoint output: growth inhibition of CCC(C)N(C(=O)c1ccccc1)c1ccccc1 (stereo not drawn) . Value?
3

Every entry's value here was drawn from PubChem BioAssay (NCI).
